# Tested on: PRKR
# Construct: gene EIF2AK2
# TEST_SETTINGS: concentration: 1 μM, replicates: in singlicate; n = 1;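 further: KINOMEscan kinase panel screen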
Entries and their %Inh

# annotated cases, reported %Inh shown
Sample COc1cccc(-c2cc(-c3c[nH]nc3-c3ccccn3)ccn2)c1 [GW680338] — what was its %Inh?
0%

State the recorded %Inh for this entry: CC(=O)Nc1nc2cnc(Nc3cc(NC(=O)c4cccc(CCC#N)c4)ccc3C)nc2s1
8%

Which value of %Inh has been reported for Cc1c(O)cccc1Nc1ccnc2ccc(C(F)(F)F)cc12.Cl [GW466413] in the records?
0%

// query %Inh value for entry CN(C)CCN(C)C(=O)c1cc(-c2ccncc2)c(-c2ccc(Cl)c(O)c2)o1.Cl.Cl [SB-710397]
0%

Consider the compound shown here: CS(=O)(=O)c1ccc(-c2nc3n(c2-c2ccncc2)CCC3)cc1 [SKF-105942] What is its recorded %Inh?
0%

New cases:
# lookup: %Inh of Fc1cc(Cl)ccc1Nc1ccnc2cc(I)ccc12 [GW551191]
0%

Param item = O=C(O)COc1ncnc2cc(-c3ccc4[nH]ncc4c3)sc12 ; retrieve measured %Inh.
0%

Which %Inh is listed for Fc1cccc(COc2nnc(-c3ccc4c(c3)CCO4)o2)c1 ?
0%

Returns the measured %Inh for the input compound. Input: Clc1cc(Cl)cc(Nc2ccnc(Nc3cc(Cl)cc(Cl)c3)n2)c1 [GSK175726]
14%

Any idea what %Inh was measured for COc1cc2ncnc(Nc3ccc4nc(-c5ccccc5)[nH]c4c3)c2cc1OC.Cl [GW282450] ?
13%

Consider the compound COc1cc2nccc(Nc3ccc(NC(=O)c4ccc(C)cc4)c(O)c3)c2cc1OC.Cl [GW440132] and give its measured %Inh.
0%

Looking for the measured %Inh of Cc1ccc(NC(=O)Nc2cccc(Cl)c2)cc1-c1ccc(C(=O)Nc2ccncc2)cc1 [GSK1398468] , can you help?
1%

====

# System: CAMK1B
# TEST_SETTINGS: concentration: 1 μM, replicates: in singlicate; n = 1
So basically, if %Inh comes in under 3% it's yes, and if it's 3% or more it's no.

Lab note: confirm whether the reported %Inh for this compound is below 3%, equality not counting. compound: Cc1ccc(NC(=O)Nc2cccc(Cl)c2)cc1-c1ccc(C(=O)Nc2ccncc2)cc1 [GSK1398468]
no

Dear colleague, could you confirm whether %Inh of Cn1ccc2ncnc(Oc3cccc(C(=O)Nc4ccccc4)c3)c21 falls below 3%? Thanks.
no

Lab note: confirm whether the reported %Inh for this compound is below 3%, equality not counting. compound: O=c1cc(N2CCOCC2)nc2n(Cc3cccc(Cl)c3Cl)ccn12 [GSK2286295]
no

hey, is %Inh for C[C@@H]1CCCCN1c1cc(-c2ccc3c(N)n[nH]c3c2)nc(N)n1 [GSK2258759] lower than 3% or not?
yes

---
Problem: For the compound CN1C(=O)C(Nc2ccc(Cl)c(C(=O)O)c2)=C(c2ccc(Cl)cc2)C1=O [SB-404290] , is %Inh under 3%?
yes

Please check: %Inh for O=C(Nc1ccc2c(c1)OCO2)NC1CCN(c2ccnc(Nc3ccc(F)cc3)n2)C1 (stereo not shown) [GSK1379724] , strictly under 3% or not?
no

Is the reported %Inh for COc1ccccc1-c1ccc2c(NC(=O)C3CC3)n[nH]c2n1 [SB-711239] strictly below 3%?
no

Input NC(=O)c1nnc2ccccc2c1N ; condition: %Inh strictly below 3%. Does it hold?
yes

Quick check: does Cn1cncc1-c1ccc2ncnc(Nc3ccc(OCc4ccccc4)cc3)c2c1 [GW320571] have %Inh under 3%?
no

hey, is %Inh for Cc1cccc(-c2nc(-c3ccc(S(C)(=O)=O)cc3)sc2-c2ccnc(NCCc3ccccc3)c2)c1 lower than 3% or not?
yes
